Just for reference, patent US7935722B2 is where these values come from.

- target.or.system: human androgen receptor (AR) (Homo sapiens)
- Construct: expressed in transfected cells; host or cells: mouse myoblast C2C12 cells, transiently co-transfected
- experiment.notes: C2C12 AR/ARE reporter assay
- Format: cell-based
Property: pEC50; scope: individual compounds
Scale for pEC50: -log10 of concentration given in mol/L; no unit attached.

Incoming: Tell me its pEC50 given O=C(NC1CCc2c(c3cc(Br)ccc3n2Cc2cccc(F)c2)C1)C1CC1 (stereo not drawn) as the entry.
Outgoing: 7.65

Incoming: Tell me its pEC50 given CC(C)C(=O)NC1CCc2c(c3cc(Br)ccc3n2Cc2ccccc2C#N)C1 (stereo not drawn) as the entry.
Outgoing: 6.36

Incoming: Tell me its pEC50 given CC(C)C(=O)NC1CCc2c(c3cc(C(F)(F)F)ccc3n2Cc2cccc(F)c2)C1 (stereo not drawn) as the entry.
Outgoing: 8.60

Incoming: Tell me its pEC50 given CC(C)C(=O)NC1CCc2c(c3cc(C=O)ccc3n2Cc2cccc(F)c2)C1 (stereo not drawn) as the entry.
Outgoing: 7.57

Incoming: Tell me its pEC50 given Cc1ccc2c(c1)c1c(n2Cc2ccccc2F)CCC(NC(=O)C(C)C)C1 (stereo not drawn) as the entry.
Outgoing: 6.34

Incoming: Tell me its pEC50 given COc1ccc2c(c1)c1c(n2Cc2ccccn2)CCC(NC(=O)C(C)C)C1 (stereo not drawn) as the entry.
Outgoing: 6.45

***
Incoming: Tell me its pEC50 given CC(C)C(=O)NC1CCc2c(c3cc(C#N)ccc3n2Cc2ccc(F)cn2)C1 (stereo not drawn) as the entry.
Outgoing: 7.06

Incoming: Tell me its pEC50 given CC(C)C(=O)NC1CCc2c(c3cc(C#N)ccc3n2Cc2ccccc2O)C1 (stereo not drawn) as the entry.
Outgoing: 9.30

Incoming: Tell me its pEC50 given CC(C)C(=O)N[C@@H]1CCc2c(c3cc(-c4cccnc4)ccc3n2Cc2cccc(F)c2)C1 as the entry.
Outgoing: 8.12

====

- target.or.system: human androgen receptor (AR) (Homo sapiens)
- Construct: expressed in transfected cells; host or cells: mouse myoblast C2C12 cells, transiently co-transfected
- Sequence (P10275 1-920): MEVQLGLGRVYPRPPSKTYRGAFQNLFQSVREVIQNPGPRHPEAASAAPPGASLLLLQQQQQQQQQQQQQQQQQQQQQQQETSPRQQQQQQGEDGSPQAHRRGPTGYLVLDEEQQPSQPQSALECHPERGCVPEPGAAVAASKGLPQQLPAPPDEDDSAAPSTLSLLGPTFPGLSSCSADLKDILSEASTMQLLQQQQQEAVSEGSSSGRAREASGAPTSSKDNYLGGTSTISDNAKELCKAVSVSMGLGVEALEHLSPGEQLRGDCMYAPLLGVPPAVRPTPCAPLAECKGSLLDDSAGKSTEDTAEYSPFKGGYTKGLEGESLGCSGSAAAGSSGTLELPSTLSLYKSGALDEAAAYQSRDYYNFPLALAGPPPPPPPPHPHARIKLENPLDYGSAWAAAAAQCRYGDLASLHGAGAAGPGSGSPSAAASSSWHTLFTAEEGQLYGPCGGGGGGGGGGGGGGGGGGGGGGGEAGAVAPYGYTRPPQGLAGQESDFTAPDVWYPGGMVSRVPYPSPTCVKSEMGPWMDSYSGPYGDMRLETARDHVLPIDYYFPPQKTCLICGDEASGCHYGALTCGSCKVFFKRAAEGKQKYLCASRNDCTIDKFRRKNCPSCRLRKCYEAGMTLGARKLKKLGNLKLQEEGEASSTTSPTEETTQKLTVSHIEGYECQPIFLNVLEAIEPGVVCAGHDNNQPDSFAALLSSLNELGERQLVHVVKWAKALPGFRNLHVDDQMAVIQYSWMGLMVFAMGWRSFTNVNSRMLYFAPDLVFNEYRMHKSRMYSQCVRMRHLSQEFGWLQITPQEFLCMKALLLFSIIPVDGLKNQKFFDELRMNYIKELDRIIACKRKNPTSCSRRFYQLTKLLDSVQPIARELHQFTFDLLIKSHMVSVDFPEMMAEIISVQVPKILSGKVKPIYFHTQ
- experiment.notes: C2C12 AR/ARE reporter assay
- Assay type: cell-based
- measurement.conditions: C2C12, read-out: C2C12 % Efficacy
- Method: As an indicator of agonist activity in muscle tissue, the C2C12 AR/ARE reporter assay is performed. Briefly, mouse myoblast C2C12 cells are co-transfected using FuGENE™. […] Cells are transfected in T150 cm^2 flasks in DMEM media with 4% or 10% Fetal Bovine Serum (PBS). […] After 48 h of incubations with compounds, cells are lysed and luciferase activity is determined using standard techniques. […] The % efficacy is determined versus maximum stimulation obtained with 10 nM methyltrienolone. […]
Label MET when Emax is at or above 90%; otherwise label NOT MET.

Take a look at these entries with their results.
Incoming: hey, is Emax for this one >= 90%? CC(C)C(=O)NC1CCc2c(c3cc(C#N)ccc3n2Cc2ccccc2N(C)C)C1 (centres unmarked) [Example 114]
Outgoing: MET

Incoming: hey, is Emax for this one >= 90%? CC(C)C(=O)NC1CCc2c(c3cc(C#N)ccc3n2Cc2ccccc2[N+](=O)[O-])C1 (centres unmarked) [Example 108]
Outgoing: NOT MET

Incoming: hey, is Emax for this one >= 90%? Cc1ccc2c(c1)c1c(n2Cc2cccc(Cl)c2)CCC(NC(=O)C(C)C)C1 (centres unmarked) [Example 48]
Outgoing: NOT MET

Incoming: hey, is Emax for this one >= 90%? CC(C)C(=O)N[C@@H]1CCc2c(c3cc(-c4cccnc4)ccc3n2Cc2cccc(F)c2)C1 [Example 133]
Outgoing: NOT MET

Incoming: hey, is Emax for this one >= 90%? CC(C)C(=O)NC1CCc2c(c3cc(Br)cc(F)c3n2Cc2cccc(F)c2)C1 (centres unmarked) [Example 120]
Outgoing: MET

***
Incoming: hey, is Emax for this one >= 90%? CC(C)C(=O)NC1CCc2c(c3cc(F)ccc3n2Cc2cccc(C#N)c2)C1 (centres unmarked) [Example 11]
Outgoing: NOT MET

Incoming: hey, is Emax for this one >= 90%? O=C(NC1CCc2c(c3cc(Br)ccc3n2Cc2cccc(F)c2)C1)C1CC1 (centres unmarked) [Example 170]
Outgoing: NOT MET
